Protocol Summary: an = ratio of the nth substance listed
Applied Conditions: 303 K; 100 kPa; Liquid; Vibrating tube method; a2 = 2
Endpoint Name: mass density (kg/m3)

Molecule	mass density [kg/m3]
C[N+](C)(C)CCO.[Cl-] [choline chloride] + OCCO	1111.4
CCCCCCCC[N+](C)(CCCCCCCC)CCCCCCCC.[Br-] [methyltrioctylammonium bromide] + CCCCCCCCCC(=O)O	939.9
C[N+](C)(C)CCO.[Cl-] [choline chloride] + OCC(O)CO	1188.5
CCCCCCCC[N+](CCCCCCCC)(CCCCCCCC)CCCCCCCC.[Br-] [tetraoctylammonium bromide] + CCCCCCCCCC(=O)O	928.4

Origin of measurements: the NIST ThermoML archive (doi:10.1021/acs.jced.9b00436)
